Molecular target: CaM1-148 (full-length CaM) (Paramecium tetraurelia, UniProt P07463)
Experiment: Fluorescence anisotropy titration of Fl-Nav1.2IQp with CaM1-148
Assay type: binding
Where no end group is shown, it is not given here.
recorded_endpoint: Kd

Problem: Name the reported Kd value associated with the sequence KRKQEEVSAIVIQRAYRRYLLKQKVKK [Fl-Nav1.2IQp]
Result: ≤ 10 nM
